Each entry below lists one item and its recorded activation at 0.001 mg value.
- System: isolated auricle of a rabbit
- assayInfo: Peripheral vasomotoricity, isolated and perfused auricle of a rabbit
- setupConditions: Oryctolagus cuniculus; dose 1 μg.; read-out: Maximum variations in the flow rate
Counter-ions that a name gives are not always drawn.
reportedEndpoint: activation at 0.001 mg (%)

- COCCCCNCC1COc2ccccc2C1=O (stereo not shown) [LJ 1053, hydrochloride]: 92
- CCCCCNCC1COc2ccccc2C1=O (stereo not shown) [LJ 1046, hydrochloride]: 29
- COCCNCC1COc2ccccc2C1=O (stereo not shown) [LJ 1052, hydrochloride]: 77
- CCCCNCC1COc2ccccc2C1=O (stereo not shown) [LJ 1049, hydrochloride]: 36
- COCCCNCC1COc2ccccc2C1=O (stereo not shown) [LJ 1051, hydrochloride]: 36
- CCCNCC1COc2ccccc2C1=O (stereo not shown) [LJ 1048, hydrochloride]: 33
- CC(COc1ccccc1)NC(C)C(O)c1ccc(O)cc1 (stereo not shown) [Isoxsuprine, reference compound]: 61

###

- Tested on: isolated auricle of a rabbit
- assayInfo: Peripheral vasomotoricity, isolated and perfused auricle of a rabbit
- setupConditions: Oryctolagus cuniculus; dose 100 μg.; read-out: Maximum variations in the flow rate
Where a name gives a salt, the structure may show the parent alone.
reportedEndpoint: activation at 0.1 mg (%)

• CC(COc1ccccc1)NC(C)C(O)c1ccc(O)cc1 (stereo not drawn) [Isoxsuprine, reference compound] = 175
• CCCCNCC1COc2ccccc2C1=O (stereo not drawn) [LJ 1049, hydrochloride] = 138
• COCCCCNCC1COc2ccccc2C1=O (stereo not drawn) [LJ 1053, hydrochloride] = 183
• CCCNCC1COc2ccccc2C1=O (stereo not drawn) [LJ 1048, hydrochloride] = 29
• CCCCCNCC1COc2ccccc2C1=O (stereo not drawn) [LJ 1046, hydrochloride] = 77
• COCCNCC1COc2ccccc2C1=O (stereo not drawn) [LJ 1052, hydrochloride] = 150
